# Test system: sodium current in GH3 cells
# assay-explanation: Inhibition of sodium current in GH3 cells, patch clamp
# Type: cell-based, rat
# measurement-parameters: read-out: IC50 inhibition of sodium current
pIC50: −log10 of the molar value.

molecule: NC1=N[C@H](O)[C@H]2[C@H]3O[C@]4(O)O[C@@H]([C@@H](O)[C@@]2(N1)[C@@H]4O)[C@]3(O)CO [tetrodotoxin]
system-tested: sodium current in GH3 cells
pIC50: 6.52

Values compiled from patent US20160214926A1.
